- Test system: A498
- assay method text: NCI tumour cell line growth inhibition, 48 h
Activity calls are given as the source filed them. Cut-off read from the data, not from the text of the source: active = GI50 up to about 1.1 µM and inactive = higher.
Reply using exactly one outcome from Yes = active, No = inactive

Example entries and their recorded answers appear below.
compound: CC(C)CC(NC(O)[BH2-][N+](C)(C)C)C(=O)NC(Cc1ccccc1)C(=O)N[C@H]1c2ccsc2/C(=N/O)[C@H]1O (stereo not given in full)
assigned category: No
//
compound: CCCC(=O)Nc1cc(/C=C/C(=O)N2CC(CCl)c3c2cc(OC(C)=O)c2[nH]cc(C)c32)n(C)c1 (stereo not given)
assigned category: Yes
//
compound: O=C1CCC2(CC1CC[S+]([O-])c1ccccc1)OCCO2 (stereo not given)
assigned category: No

Given `CSc1c(C(=O)Nc2ccc(C)cc2)c(N)n(N)c(=O)c1C#N` , state the outcome it received in this test.
No

State the result this test recorded for `COC(=O)c1cc2ccc(O)c(O)c2cn1` .
No

Called result for Nc1ncnc2c1nnn2C1C=C(CO)C(O)C1O (stereo not given)
No

Each compound tested received a call. Report the one for c1ccc2c(OCC3CO3)ccc(OCC3CO3)c2c1 (stereo not given) .
No

For this compound, state the assay outcome: `N#CC(C#N)C(c1ccccc1)c1ccccc1`
No

Answer briefly: the call reported for O=C1NC(=O)C(F)(n2cc(F)c(=O)[nH]c2=O)C(O)N1 (stereo not given) in this assay.
No

How was COc1ccc(C2=CC(C(C)=C(C(N)=O)C(N)=O)C=C(c3ccc(Br)cc3)C2)c(OC)c1 (stereo not given) classified in this test?
No

====

- Test system: 786-0
- assay method text: NCI tumour cell line growth inhibition, 48 h
Active and inactive are the calls of the source. No stated cut-off is given here; in the data, active = GI50 up to about 1.1 µM and inactive = higher.
reported metric: GI50

Some compounds with known GI50 results, for comparison:
compound: C/C(=N\c1ccc(N(C)C)cc1)c1ccccc1
GI50: 19.8 µM (inactive)
--
compound: O=C(C(=O)c1ccc(Cc2ccc(C(=O)C(=O)c3ccccc3)cc2)cc1)c1ccccc1
GI50: > 100 µM (inactive)
--
compound: CC1=C(O)C(O)=C(C2=C(O)C(O)=C(C)C(=O)C2=O)C(=O)C1=O
GI50: 41.7 µM (inactive)
--
compound: CC(C(=O)c1ccccc1)C(c1ccccc1)N1CCOCC1 (stereo not given)
GI50: > 100 µM (inactive)
--
compound: NS(=O)(=O)c1ccc(NC(=O)c2cc([N+](=O)[O-])cc([N+](=O)[O-])c2)cc1
GI50: 76.2 µM (inactive)

Given the compound CCOC(=O)C1S/C(=N\c2ccc(OC)c(OC)c2)N=C1C (stereo not given) , what is its reported GI50?
29.2 µM (inactive)

Reported GI50 for `Cn1c2c(c3ccccc31)CCN(CCCCN1CCc3c(n(C)c4ccccc34)C1=O)C2` : what is it?
> 100 µM (inactive)

Consider the compound C=C[C@]1(C)CC(=O)C(C(C)C=O)[C@]12C(=O)Oc1cccc(C)c1C2=O (stereo not given in full) and give its measured GI50.
16.4 µM (inactive)

Endpoint output: GI50 of `CC1(C)COC(c2cccc3c2C(=O)c2cccc(Cl)c2-3)=N1` . Value?
39.4 µM (inactive)

Which GI50 is reported for this compound? `OC[C@@H](O)[C@H](O)[C@H](O)[C@@H](O)C1SCCCS1`
> 100 µM (inactive)
